Origin of the recorded values: patent US12577248B2

- tested on: SYK kinase (Homo sapiens, UniProt P43405)
- assay explanation: SYK kinase assay (HTRF KinEASE-TK)
- Assay type: biochemical
- test settings: class symbols, read-out: Syk inhibition IC50
measured quantity: IC50

Known results for molecules:
c1nc2c(Nc3ccc(N4CC5(COC5)C4)cc3)nc(-c3ccc4cn[nH]c4c3)cn2n1: 0.05 to 0.5 µM
COc1cc(Nc2nc(-c3ccc4cn[nH]c4c3)cn3ncnc23)ccc1N1CCC(C)(O)CC1: ≤ 0.05 µM
CCOc1cc(Nc2nc(-c3ccc4cc[nH]c4c3)cn3ncnc23)ccc1N1CC2CC1CN2C1COC1 (centres unmarked): ≤ 0.05 µM
CCS(=O)(=O)N1CCN(c2ccc(Nc3nc(-c4ccc5cn[nH]c5c4)cn4ncnc34)cc2OC)CC1: ≤ 0.05 µM
COc1cc(Nc2nc(-c3ccc4cn[nH]c4c3)cn3ncnc23)ccc1N1CCN(CC(F)(F)F)CC1: ≤ 0.05 µM
CC(C)N1C[C@@H]2C[C@@H]1CN2c1ccc(Nc2nc(-c3ccc4cn[nH]c4c3)cn3ncnc23)cc1: 0.05 to 0.5 µM
O=C1COc2cc(-c3cn4ncnc4c(Nc4ccc(N5CCOCC5)cc4)n3)ccc2N1: ≤ 0.05 µM
CCN1CCN(c2ccc(Nc3nc(-c4ccc5cn[nH]c5c4)cn4ncnc34)cc2OC)CC1: ≤ 0.05 µM

Now for a further molecule.
Q: Look up and report IC50, with SYK kinase (Homo sapiens, UniProt P43405) as system, for CC(C)Oc1cc(Nc2nc(-c3ccc4cc[nH]c4c3)cn3ncnc23)ccc1N1CC2CC1CN2C1COC1 (centres unmarked)
A: 0.05 to 0.5 µM
